Reference source for all entries: patent US12065436B2

// reported pIC50 for each item listed
target: bovine cardiac myofibrils (full-length cardiac myosin ATPase in the native sarcomere) (Bos taurus (Bovine), UniProt Q9BE39); test: Skinned bovine cardiac myofibril ATPase assay (PK/LDH-coupled); conditions: Ca2+ activating to 75% of maximal rate, read-out: CDMF75 IC50
Sequence (Q9BE39 whole entry): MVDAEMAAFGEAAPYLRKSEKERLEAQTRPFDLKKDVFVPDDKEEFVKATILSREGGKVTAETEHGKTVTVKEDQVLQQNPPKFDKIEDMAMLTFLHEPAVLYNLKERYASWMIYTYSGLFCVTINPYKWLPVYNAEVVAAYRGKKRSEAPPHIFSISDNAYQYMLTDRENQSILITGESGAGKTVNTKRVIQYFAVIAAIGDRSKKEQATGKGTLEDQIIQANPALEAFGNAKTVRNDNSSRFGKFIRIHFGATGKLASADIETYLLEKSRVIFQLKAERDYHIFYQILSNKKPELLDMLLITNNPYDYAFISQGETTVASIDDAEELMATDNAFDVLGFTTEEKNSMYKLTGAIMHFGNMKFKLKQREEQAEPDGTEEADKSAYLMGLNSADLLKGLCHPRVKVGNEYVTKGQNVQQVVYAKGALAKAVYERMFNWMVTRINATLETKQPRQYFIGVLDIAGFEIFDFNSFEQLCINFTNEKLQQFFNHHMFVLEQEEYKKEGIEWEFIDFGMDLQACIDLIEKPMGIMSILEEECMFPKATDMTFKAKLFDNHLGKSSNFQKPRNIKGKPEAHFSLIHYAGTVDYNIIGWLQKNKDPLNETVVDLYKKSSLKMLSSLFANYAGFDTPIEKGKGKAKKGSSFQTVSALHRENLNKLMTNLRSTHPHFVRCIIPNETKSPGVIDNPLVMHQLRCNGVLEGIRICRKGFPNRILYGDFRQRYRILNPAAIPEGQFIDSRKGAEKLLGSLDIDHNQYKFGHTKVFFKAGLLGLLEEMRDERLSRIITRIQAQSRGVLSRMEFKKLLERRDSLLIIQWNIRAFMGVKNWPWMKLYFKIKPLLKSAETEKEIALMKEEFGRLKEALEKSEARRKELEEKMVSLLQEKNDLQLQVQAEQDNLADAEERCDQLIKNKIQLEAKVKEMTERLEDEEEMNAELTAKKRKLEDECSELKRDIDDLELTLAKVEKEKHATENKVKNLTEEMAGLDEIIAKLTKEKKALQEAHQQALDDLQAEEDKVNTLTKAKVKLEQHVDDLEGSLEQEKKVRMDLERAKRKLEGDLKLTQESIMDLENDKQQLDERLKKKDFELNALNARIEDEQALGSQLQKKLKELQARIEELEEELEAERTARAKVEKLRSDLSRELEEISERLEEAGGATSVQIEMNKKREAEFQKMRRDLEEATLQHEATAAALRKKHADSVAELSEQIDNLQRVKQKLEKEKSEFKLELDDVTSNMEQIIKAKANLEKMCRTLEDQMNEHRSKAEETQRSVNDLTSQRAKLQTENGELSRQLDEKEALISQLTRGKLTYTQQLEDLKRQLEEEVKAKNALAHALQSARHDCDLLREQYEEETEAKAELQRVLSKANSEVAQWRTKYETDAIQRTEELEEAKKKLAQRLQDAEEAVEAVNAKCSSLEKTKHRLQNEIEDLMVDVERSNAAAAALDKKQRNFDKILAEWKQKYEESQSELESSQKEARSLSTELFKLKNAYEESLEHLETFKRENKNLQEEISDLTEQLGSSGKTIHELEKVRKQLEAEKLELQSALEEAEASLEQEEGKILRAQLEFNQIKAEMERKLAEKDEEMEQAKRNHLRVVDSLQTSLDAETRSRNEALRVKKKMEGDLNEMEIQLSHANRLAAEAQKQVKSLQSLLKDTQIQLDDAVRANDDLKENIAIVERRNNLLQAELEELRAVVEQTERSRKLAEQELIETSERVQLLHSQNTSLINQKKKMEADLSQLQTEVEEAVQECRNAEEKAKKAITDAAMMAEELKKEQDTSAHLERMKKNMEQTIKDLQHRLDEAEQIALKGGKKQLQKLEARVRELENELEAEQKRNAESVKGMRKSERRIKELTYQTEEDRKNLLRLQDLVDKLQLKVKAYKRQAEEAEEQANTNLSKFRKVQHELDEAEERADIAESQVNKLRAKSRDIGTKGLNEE
Sequence (P85100 whole entry partner): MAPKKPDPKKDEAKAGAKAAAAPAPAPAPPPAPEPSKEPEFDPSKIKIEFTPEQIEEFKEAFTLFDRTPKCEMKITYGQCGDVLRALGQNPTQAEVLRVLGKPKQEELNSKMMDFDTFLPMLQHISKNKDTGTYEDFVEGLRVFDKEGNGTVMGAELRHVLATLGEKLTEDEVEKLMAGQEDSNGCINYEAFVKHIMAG
Sequence (Q3SZE5 whole entry partner): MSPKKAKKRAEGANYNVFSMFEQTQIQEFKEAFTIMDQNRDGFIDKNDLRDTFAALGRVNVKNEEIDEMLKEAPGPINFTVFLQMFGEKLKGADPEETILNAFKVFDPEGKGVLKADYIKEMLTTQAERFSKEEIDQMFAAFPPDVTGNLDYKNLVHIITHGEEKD
pIC50 here: minus log base 10 of the concentration, concentration in moles per litre.

Solved entries (count: 4):
# COMPOUND, pIC50
data = [
    ("Cc1cc(C(=O)NC2CCc3cc(-c4cc(C(F)F)no4)ccc32)ccn1 (centres unmarked)", 4.80),
    ("Cn1cc(C(=O)N[C@@H]2CCc3cc(-c4noc(C5CC5)n4)ccc32)cn1", 5.57),
    ("Cc1ncc(C(=O)NC2CCc3cc(-c4noc(C(F)F)n4)ccc32)s1 (centres unmarked)", 5.47),
    ("CCc1nc(-c2ccc3c(c2)CC[C@H]3NC(=O)c2cnn(CC(=O)OC)c2)no1", 5.42),
]

Please report the recorded pIC50 for Cc1nc(-c2ccc3c(c2)OC[C@H]3NC(=O)c2cc(CO)ccn2)no1 .
5.28

Field entry: CCc1nc(-c2ccc3c(c2)CC[C@H]3NC(=O)c2cn(CCOC)nc2C)no1
5.60

Field entry: CCc1nc(-c2ccc3c(c2)CC[C@H]3NC(=O)c2nccn2C)no1
5.29

Field entry: Cn1nccc1C(=O)N[C@@H]1CCc2cc(-c3nccs3)ccc21
4.72

* * *

biological target: bovine cardiac myofibrils (full-length cardiac myosin ATPase in the native sarcomere) (Bos taurus (Bovine)); assay: Skinned bovine cardiac myofibril ATPase assay (PK/LDH-coupled); type: biochemical; settings: Ca2+ activating to 75% of maximal rate, concentration giving 15% inhibition
// reported CDMF75 IC15 for each item listed
State the answer as a number, implicitly in nM.

Solved entries (count: 4):
# MOLECULE, READING_UNIT, MEASURED
rows = [
    ("Cc1nc(C(=O)NC2CCc3cc(-c4noc(C(F)F)n4)ccc32)c(C)o1 (centres unmarked)", "nM", 5500),
    ("CCc1nc(-c2ccc3c(c2)CC[C@H]3NC(=O)OCC2CN(C(N)=O)C2)no1", "nM", 1900),
    ("CCc1nc(-c2ccc3c(c2)CC[C@H]3NC(=O)c2ccnc(C)c2)no1", "nM", 500),
    ("O=C(N[C@@H]1CCc2cc(-c3noc(C(F)F)n3)ccc21)C1CCC1", "nM", 39200),
]

Please report the recorded CDMF75 IC15 for O=C(NC1CCCC1)N[C@@H]1CCc2cc(-c3noc(C(F)F)n3)ccc21 .
39200

Field entry: O=C(NC1CCc2cc(-c3noc(C(F)F)n3)cnc21)c1ccccc1 (centres unmarked)
5200

* * *

// reported CDMF75 IC15 for each item listed
biological target: bovine cardiac myofibrils (full-length cardiac myosin ATPase in the native sarcomere) (Bos taurus (Bovine)); assay: Skinned bovine cardiac myofibril ATPase assay (PK/LDH-coupled); assay type: biochemical; details: Ca2+ activating to 75% of maximal rate, concentration giving 15% inhibition
State the answer as a number, implicitly in µM.

Solved entries (count: 5):
# COMPOUND, MEASURED
rows = [
    ("COCc1nc(-c2ccc3c(c2)CC[C@H]3NC(=O)c2nonc2C)no1", 1.0),
    ("O=C(N[C@@H]1CCc2cc(-c3noc(C(F)F)n3)ccc21)C1CCCO1 (some centres unmarked)", 20.4),
    ("CCc1nc(-c2ccc3c(c2)CC[C@H]3NC(=O)c2ccc(C)cn2)no1", 1.4),
    ("CCc1nc(-c2ccc3c(c2)CC[C@H]3NC(=O)OCCOC)no1", 0.8),
    ("Cc1noc(C(=O)NC2CCc3cc(-c4noc(C(F)F)n4)ccc32)n1 (centres unmarked)", 1.7),
]

Please report the recorded CDMF75 IC15 for CCc1nc(-c2ccc3c(c2)CC[C@H]3NC(=O)c2cc(C)ncn2)no1 .
0.5

Field entry: CCc1nc(-c2ccc3c(c2)CC[C@H]3NC(=O)OC)no1
0.2

Field entry: O=C(N[C@@H]1CCc2cc(-c3noc(C(F)F)n3)ccc21)OC1CNC1
17.3

Field entry: CCc1cc(-c2ccc3c(c2)OC[C@H]3NC(=O)c2cnc(C)o2)no1
0.4

Field entry: O=C(N[C@@H]1CCc2cc(-c3noc(C(F)F)n3)ccc21)c1ccnc(CO)c1 [Compound 664]
0.5

Field entry: CC(C)c1nc(-c2ccc3c(c2)CC[C@H]3NC(=O)c2cnn(CCO)c2)no1
2.0

Field entry: CCc1nc(-c2ccc3c(c2)CC[C@H]3NC(=O)c2ccncc2)no1
0.3

Field entry: Cc1cc(C(=O)N[C@@H]2CCc3cc(-c4nc(C(F)F)no4)ccc32)ccn1
1.5

Field entry: Cn1cc(C(=O)N[C@@H]2CCc3cc(-c4noc(C5CCC5)n4)ccc32)ccc1=O
1.6

Field entry: Cn1nccc1C(=O)N[C@H]1COc2cc(-c3noc(C4CC4)n3)ccc21
38.3

Field entry: Cc1n[nH]cc1C(=O)N[C@@H]1CCc2cc(-c3noc(C4CCC4)n3)ccc21
0.3

Field entry: Cc1cc(-c2ccc3c(c2)OC[C@H]3NC(=O)c2ocnc2C)no1
0.5

Field entry: Cc1cc(C(=O)N[C@@H]2COc3cc(-c4noc(C)n4)ccc32)n(C)n1
1.1

Field entry: COC(=O)c1nc(-c2ccc3c(c2)CCC3NC(=O)c2cn(C)nc2C)no1 (centres unmarked)
2.6

Field entry: Cn1nnc(C(=O)NC2CCc3cc(-c4noc(C(F)F)n4)ccc32)n1 (centres unmarked)
1.1

* * *

biological target: bovine cardiac myofibrils (full-length cardiac myosin ATPase in the native sarcomere) (Bos taurus (Bovine), UniProt Q9BE39); experiment: Skinned bovine cardiac myofibril ATPase assay (PK/LDH-coupled); details: Ca2+ activating to 75% of maximal rate, read-out: CDMF75 IC50
MEASUREMENT_TYPE: IC50 (nM)
State the answer as a number, implicitly in nM.

# MOLECULE, IC50, nM
records = [
    ("Cc1nc(-c2ccc3c(c2)OC[C@H]3NC(=O)c2ocnc2C)no1", 1800),
    ("O=C(NC1CCc2cc(-c3noc(C(F)F)n3)ccc21)c1ocnc1C1CC1 (centres unmarked)", 2900),
    ("Cc1n[nH]cc1C(=O)N[C@@H]1CCc2cc(-c3noc(C4CCC4)n3)ccc21", 1000),
]

Please report the recorded IC50 for CCc1nc(-c2ccc3c(c2)CC[C@H]3NC(=O)OCC(C)C)no1 .
900

Field entry: Cc1ccnc(C(=O)NC2CCc3cc(-c4noc(C)n4)ccc32)c1 (centres unmarked)
6100

Field entry: Cc1cc(C(=O)NC2CCc3cc(-c4cc(C(F)F)on4)ccc32)ccn1 (centres unmarked)
3800

Field entry: [2H]C([2H])([2H])c1noc(-c2ccc3c(c2)CC[C@H]3NC(=O)c2cnn(C)c2)n1
15000

* * *

target: bovine cardiac myofibrils (full-length cardiac myosin ATPase in the native sarcomere) (Bos taurus (Bovine), UniProt Q9BE39); test: Skinned bovine cardiac myofibril ATPase assay (PK/LDH-coupled); conditions: Ca2+ activating to 75% of maximal rate, read-out: CDMF75 IC50
MEASUREMENT_TYPE: pIC50
pIC50 here: minus log base 10 of the concentration, concentration in moles per litre.

Solved entries (count: 10):
# COMPOUND, MEASUREMENT_TYPE, MEASURED
records = [
    ("O=C(N[C@@H]1CCc2cc(-c3noc(C(F)F)n3)ccc21)c1cnn(CCO)c1", "pIC50", 5.31),
    ("CC(=O)N[C@@H]1COc2cc(-c3noc(C4CCC4)n3)ccc21", "pIC50", 5.04),
    ("Cc1nc(-c2ccc3c(c2)CC[C@H]3NC(=O)c2c[nH]nc2C)no1", "pIC50", 5.55),
    ("Cc1nc(-c2ccc3c(c2)CCC3NC(=O)c2oncc2C)no1 (stereo not drawn)", "pIC50", 5.60),
    ("CCc1nc(-c2ccc3c(c2)CC[C@H]3NC(=O)c2cc(C)no2)no1", "pIC50", 5.96),
    ("CCc1nc(-c2cc3c(cc2F)[C@H](NC(=O)c2cnn(C)c2)CC3)no1", "pIC50", 5.12),
    ("CCc1nc(-c2ccc3c(c2)OC[C@H]3NC(=O)c2ocnc2C)no1", "pIC50", 6.15),
    ("Cc1nc(-c2ccc3c(c2)OC[C@H]3NC(=O)c2conc2C)no1", "pIC50", 5.80),
    ("CCc1nc(-c2ccc3c(c2)CC[C@H]3NC(=O)c2cnn(C[C@H](O)CO)c2)no1", "pIC50", 5.54),
    ("CCc1nc(-c2ccc3c(c2)CC[C@H]3NC(=O)c2nn[nH]n2)no1", "pIC50", 5.10),
]

Please report the recorded pIC50 for CCc1nc(-c2ccc3c(c2)CC[C@H]3NC(=O)c2cnn(CCOC)c2C)no1 [Compound 575] .
5.38
